Measured number of mice dead values are reported for all entries that follow.
- System: mice
- protocol: synergism of acute toxicity of Dimetilan, GS 13005, Secobarbital and Methadone (intraperitoneal)
- Assay type: in vivo, Swiss albino white male mice
- measurement.conditions: Dimetilan 8 mg/kg + synergist 80 mg/kg ip, 48 hours, of eight mice
readout.label: number of mice dead

- compound: "C#CCOCc1cccc2ccccc12"
  readout.label: "number of mice dead"
  observed.result: 0
- compound: "C#CCON=C(C)c1ccc(Cl)cc1"
  readout.label: "number of mice dead"
  observed.result: 1
- compound: "C#CCON=Cc1cccc2ccccc12"
  readout.label: "number of mice dead"
  observed.result: 0
- compound: "C#CCOCc1ccc(Cl)cc1[N+](=O)[O-]"
  readout.label: "number of mice dead"
  observed.result: 0
- compound: "C#CCOC(c1ccc(Cl)cc1)C(C)[N+](=O)[O-] (stereo not shown)"
  readout.label: "number of mice dead"
  observed.result: 5
- compound: "C#CCOC(c1ccc(Cl)cc1Cl)C(C)[N+](=O)[O-] (stereo not shown)"
  readout.label: "number of mice dead"
  observed.result: 4
- compound: "CCOCCOCCOC(C)Oc1ccc2c(c1)OCO2 (stereo not shown) [Sesoxane, reference compound]"
  readout.label: "number of mice dead"
  observed.result: 8
- compound: "C#CCOCc1ccc([N+](=O)[O-])cc1Cl"
  readout.label: "number of mice dead"
  observed.result: 0
- compound: "C#CCOCc1ccc([N+](=O)[O-])c(Cl)c1"
  readout.label: "number of mice dead"
  observed.result: 0
- compound: "C#CCOCc1cccc([N+](=O)[O-])c1Cl"
  readout.label: "number of mice dead"
  observed.result: 0
